Attribute: pIC50
Molecular target: CDK4/cyclin D1 (Homo sapiens (Human), UniProt P11802)
Sequence (P11802 whole entry): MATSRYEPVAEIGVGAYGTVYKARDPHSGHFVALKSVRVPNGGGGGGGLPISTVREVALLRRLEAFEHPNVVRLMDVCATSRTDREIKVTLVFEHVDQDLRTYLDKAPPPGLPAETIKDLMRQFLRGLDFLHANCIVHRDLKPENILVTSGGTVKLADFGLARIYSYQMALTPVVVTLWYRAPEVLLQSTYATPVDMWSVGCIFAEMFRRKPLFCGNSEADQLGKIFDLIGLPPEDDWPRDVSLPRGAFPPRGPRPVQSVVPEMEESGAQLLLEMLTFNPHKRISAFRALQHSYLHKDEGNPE
Sequence (P24385 whole entry partner): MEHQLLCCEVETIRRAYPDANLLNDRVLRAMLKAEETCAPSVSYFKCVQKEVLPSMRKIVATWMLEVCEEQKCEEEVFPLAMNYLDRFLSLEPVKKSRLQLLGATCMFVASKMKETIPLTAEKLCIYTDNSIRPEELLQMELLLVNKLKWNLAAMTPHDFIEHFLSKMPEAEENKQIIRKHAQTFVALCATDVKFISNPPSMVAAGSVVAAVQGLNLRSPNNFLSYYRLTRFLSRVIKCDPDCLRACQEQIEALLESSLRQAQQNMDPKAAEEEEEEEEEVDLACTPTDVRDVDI
Experiment: CDK4 Caliper Mobility Shift assay
Format: biochemical
Description: A Caliper Mobility Shift assay was used to determine the inhibitory activities of a compound against CDK4/cyclin D1 and CDK6/cyclin D1 in their respective kinase buffers (CDK4: 20 mM HEPES, pH 7.5, and 0.01% Triton X-100; CDK6: 50 mM HEPES, pH 7.5, and 0.0015% BRIJ-35). The CDK4/cyclin D1 and CDK6/cyclin D1 were obtained from PROQINASE and CARNA, respectively. A FAM-labeled peptide was obtained from GL. […]
pIC50: −log10 of the molar value.

Worked cases, answers included:
CC(=O)c1c(C)c2cnc(Nc3ccc(N4CCN(S(=O)(=O)NC(=O)OC(C)(C)C)CC4)cn3)nc2n(C2CCCC2)c1=O [Compound A4]; ≥ 6.70
CC(=O)c1c(C)c2cnc(Nc3ccc(N4CCN(S(=O)(=O)NC(=O)OCCNC(=O)[C@@H](C)N)CC4)cn3)nc2n(C2CCCC2)c1=O [Compound A16]; ≥ 6.70
CCNS(=O)(=O)N1CCN(c2ccc(Nc3ncc4c(C)c(C(C)=O)c(=O)n(C5CCCC5)c4n3)nc2)CC1 [Compound A47]; ≥ 6.70

Returns the measured pIC50 for the input compound. Input: CC(=O)c1c(C)c2cnc(Nc3ccc(N4CCN(S(=O)(=O)NC(=O)C(C)C)CC4)cn3)nc2n(C2CCCC2)c1=O [Compound A36]
≥ 6.70

Returns the measured pIC50 for the input compound. Input: CCCC(=O)NS(=O)(=O)N1CCN(c2ccc(Nc3ncc4c(C)c(C(C)=O)c(=O)n(C5CCCC5)c4n3)nc2)CC1 [Compound A37]
6.30 to 6.70

Returns the measured pIC50 for the input compound. Input: CC(=O)c1c(C)c2cnc(Nc3ccc(N4CCN(S(N)(=O)=O)CC4)cn3)nc2n(C2CCCC2)c1=O [Compound A5]
≥ 6.70

Returns the measured pIC50 for the input compound. Input: CC(=O)c1c(C)c2cnc(Nc3ccc(N4CCN(S(=O)(=O)NC(=O)OC5CCC5)CC4)cn3)nc2n(C2CCCC2)c1=O [Compound A23]
< 6.30

Returns the measured pIC50 for the input compound. Input: CC(=O)c1c(C)c2cnc(Nc3ccc(N4CCN(S(=O)(=O)NCCO)CC4)cn3)nc2n(C2CCCC2)c1=O [Compound A42]
≥ 6.70

Returns the measured pIC50 for the input compound. Input: COCCNS(=O)(=O)N1CCN(c2ccc(Nc3ncc4c(C)c(C(C)=O)c(=O)n(C5CCCC5)c4n3)nc2)CC1 [Compound A43]
≥ 6.70

Returns the measured pIC50 for the input compound. Input: CC(=O)c1c(C)c2cnc(Nc3ccc(N4CCN(S(=O)(=O)O)CC4)cn3)nc2n(C2CCCC2)c1=O [Compound 6.1]
≥ 6.70

Returns the measured pIC50 for the input compound. Input: CC(=O)c1c(C)c2cnc(Nc3ccc(N4CCN(S(=O)(=O)NC(=O)C5CCOCC5)CC4)cn3)nc2n(C2CCCC2)c1=O [Compound A40]
≥ 6.70

Returns the measured pIC50 for the input compound. Input: COCCOC(=O)NS(=O)(=O)N1CCN(c2ccc(Nc3ncc4c(C)c(C(C)=O)c(=O)n(C5CCCC5)c4n3)nc2)CC1 [Compound A8]
6.30 to 6.70

Returns the measured pIC50 for the input compound. Input: CSCC[C@H](N)C(=O)NCCOC(=O)NS(=O)(=O)N1CCN(c2ccc(Nc3ncc4c(C)c(C(C)=O)c(=O)n(C5CCCC5)c4n3)nc2)CC1 [Compound A19]
≥ 6.70
